- Test system: NCI-H226 lung
- measurementNotes: NCI tumour cell line growth inhibition, 48 h
assayMetric: TGI

1) CCCC1=C(CC)C(C(=O)Nc2c(C)cccc2C)=NC(S)N1 (stereo not given) ... > 100 µM
2) COc1ccc2[nH]c3c4[nH]c5ccc(OC)cc5c4c4c(c3c2c1)C(=O)NC4=O ... > 25 µM
3) CN=C(SC)N(C)c1nc(=[N+](C)C)ss1 ... > 100 µM
4) CCc1nc(N)nc(N)c1-c1ccc(NC)c([N+](=O)[O-])c1 ... > 100 µM
5) NC(=O)c1cc(Cl)ccc1NC(=O)/C=C/c1ccccc1 ... > 100 µM
6) O=c1c2ccccc2nc(Cc2nc(-c3ccc(Cl)cc3)cs2)n1-c1ccc(Cl)cc1 ... > 100 µM
7) Nc1nc(-c2ccccc2)cc(-c2ccc(OCc3ccccc3)cc2O)n1 ... > 100 µM
8) CCc1cc(Cc2cc(CC)c(NC(=O)C(=O)CC(=O)c3sc(-c4cccnc4)nc3C)c(CC)c2)cc(CC)c1NC(=O)C(=O)CC(=O)c1sc(-c2cccnc2)nc1C ... > 100 µM
9) COC(=O)[C@@]12C(=O)C=CC(=O)C1C1C(=CC2C)OC2OC3(CCCCC3)OC21 (stereo not given in full) ... 33.7 µM
10) CCOC(=O)c1ccc(NCc2ccc3oc(=O)c(-c4ccccc4)nc3c2)cc1 ... > 100 µM

* * *

- Tested on: TK-10 renal
- measurementNotes: NCI tumour cell line growth inhibition, 48 h; in the data active = GI50 below about 0.43 µM; inactive = the rest
Possible outcomes: 1 for active, 0 for inactive

1. COc1ccc(/C=C/c2c(C(=O)/C=C/c3ccccc3)c(C)nc3ccccc23)cc1 ... 0
2. CC1(C)C(=O)/C(=C\c2cccnc2)C[C@]2(C)[C@H]3CC[C@@H]4[C@H]5[C@H](C(=O)/C=C/c6cccnc6)CC[C@]5(C(=O)O)CC[C@@]4(C)[C@]3(C)CC[C@@H]12 ... 0
3. N#Cc1cc(-c2cc3ccccc3o2)oc1N ... 0
4. COc1ccc(-c2[nH]c3ccc(OC)cc3c2/C=C(\C#N)S(=O)(=O)c2ccccc2)cc1 ... 0
5. COc1cc2oc(-c3ccc(O)cc3)c(OC)c(=O)c2c(O)c1OC ... 0
6. COc1ccc(C(=O)c2cc(C)c(OC)c(C)c2)cc1OC(=O)CCl ... 0
7. O=C1/C(=C(/c2ccccc2)N2CCOCC2)Cc2ccccc21 ... 0
8. COCC[C@H]1CCC/C=C/[C@@H]2C[C@H](O)C[C@H]2[C@H](O)/C=C/C(=O)O1 ... 1
9. COc1c(C(=O)/C=C/c2ccccc2)c(O)cc2occc12 ... 0

* * *

- Test system: HOP-62 NSCLC
- measurementNotes: NCI tumour cell line growth inhibition, 48 h; in the data active = GI50 below about 0.43 µM; inactive = the rest
Possible outcomes: active, inactive

1) CC(C)c1ccc(-c2cc(-c3cn[nH]c3-c3ccccn3)ccn2)cc1 ... inactive
2) COc1cc2c(cc1OCCCCC(=O)Nc1cc3c4ccccc4ccc3c3ccccc13)N=C[C@@H]1CCCN1C2=O ... inactive
3) COc1ccc(C(=O)c2cc(C)c(OC)c(C)c2)cc1OC(=O)CCl ... active

* * *

- Test system: OVCAR-5 ovarian
- measurementNotes: NCI tumour cell line growth inhibition, 48 h
assayMetric: TGI

1) C=CCCCCC/C=C\[C@@H](O)C#CC#C/C=C/CO ... > 100 µM
2) COc1c2c(cc3c1OCO3)[C@]13C=C[C@H](OC)C[C@H]1N(C2)CC3O (stereo partly specified) ... > 100 µM
3) CC1=CCC(O)C=CC(C)C(O)C(C)C=C(C)C(=O)c2c(O)c(C)cc3c2C(=O)C(N)=C(NC(=O)/C=C\C=C/C=CC(C)C(O)CC1=O)C3=O (stereo unspecified) ... > 100 µM
4) C/C(=N\Nc1ccc(Cl)cn1)c1ccc2ccccc2n1 ... > 100 µM
5) CCOC(=O)c1cn2c(n1)sc1cc(Cl)ccc12 ... > 100 µM
6) C=CCCC1(CC(Sc2ccccc2)P(=O)(c2ccccc2)c2ccccc2)OCCO1 (stereo unspecified) ... > 10 µM
7) Nc1nc(Nc2cccnc2)sc1C(=O)c1ccccc1F ... 7.61 µM
8) CC1S/C(=N\N=C2/C(=O)Nc3ccc(Br)cc32)N(C2CCCCC2)C1=O (stereo unspecified) ... > 100 µM
9) N#Cc1cc(-c2cc3ccccc3o2)oc1N ... 30.6 µM
10) CN(C(=O)Cc1cccc(N=C=S)c1)[C@H]1CCCC[C@@H]1N1CCCC1 ... 36.1 µM
11) CC1=C(/C=C/Cl)CC(Cl)C(C)(Cl)C1 (stereo unspecified) ... > 100 µM

* * *

- Test system: SK-MEL-5 melanoma
- measurementNotes: NCI tumour cell line growth inhibition, 48 h
assayMetric: TGI (µM)

1) Cc1ccc(N=C/C=C(\Nc2ccc(C)cc2)c2ccc(Cl)cc2)cc1 ... 20.7
2) COc1cc2ncnc(-n3ncc4cc(NC(=O)Nc5ccccc5)ccc43)c2cc1OC ... 21.3
3) COc1cc2[nH]c3c(c2cc1OC)CCN[C@]31CC[C@]2(CC3c4c(cc(OC)c(O)c42)CCN3C)C[C@H]1OC (some centres not stated) ... 30.6

* * *

- Tested on: SK-MEL-5 melanoma
- measurementNotes: NCI tumour cell line growth inhibition, 48 h; in the data active = GI50 below about 0.43 µM; inactive = the rest
Possible outcomes: 1.0 for active, 0.0 for inactive

1. Nc1nc(Nc2cccnc2)sc1C(=O)c1ccccc1F ... 1.0
2. N#Cc1cc(-c2cc3ccccc3o2)oc1N ... 0.0
3. Cc1cc2ncnn2cc1Nc1ncc2c(n1)n(C1CCOCC1)c(=O)n2C ... 0.0
4. COc1ccc(C[N+](C)(C)N)cc1OC ... 0.0
5. O=S(=O)(c1ccc(NC(=S)NC23CC4CC(CC(C4)C2)C3)cc1)N1CCCCC1 ... 0.0
6. O=C1c2cccnc2-c2nc(-c3ccc(Cl)cc3)cc3c2c1nc1ccccc13 ... 0.0
7. c1ccc(Sc2ccc(Cc3nc4cc5ccccc5cc4[nH]3)cc2)cc1 ... 0.0
8. COC(=O)Nc1nc2ccc(C3(c4ccc(F)cc4)OCCO3)cc2[nH]1 ... 1.0
9. O=C1/C(=C(/c2ccccc2)N2CCOCC2)Cc2ccccc21 ... 0.0
10. COc1c(C(=O)/C=C/c2ccccc2)c(O)cc2occc12 ... 0.0
11. CC/C=C\C[C@H](O)C/C=C1/C(=O)C=C[C@@H]1C/C=C\CCCC(=O)OC ... 0.0

* * *

- System: A498 renal
- measurementNotes: NCI tumour cell line growth inhibition, 48 h
Some compounds, each annotated with its measured TGI.
assayMetric: TGI

1. O=C(Nc1cc(Cl)c(Cl)cc1Cl)C(=O)C1C(=O)NC(=S)NC1=O ... > 100 µM
2. O=C(CC(=O)n1nc(-c2ccccc2)c(N=Nc2ccc(Cl)cc2)c1-c1ccccc1)Nc1ccc(Cl)cc1 ... > 100 µM
3. CC1=C(/C=C/Cl)CC(Cl)C(C)(Cl)C1 (configuration not stated) ... > 100 µM
4. Cc1cc(N(CCC#N)CCC#N)ccc1/C=C(\NC(=O)/C=C/c1ccccc1)C(N)=O ... > 100 µM
5. CCC(C)NC1=NCC(C)S1 (configuration not stated) ... > 100 µM
6. CC1CCCCNC1=S (configuration not stated) ... > 10 µM
7. COc1cc(/C=C/c2ccc(OC)c(O)c2)cc(OC)c1 ... > 100 µM
8. C/C(=N/NC(N)=S)c1ccc[nH]1 ... > 100 µM
9. O=C(c1ccco1)N(C(=S)OCCOc1ccccc1)c1ccccc1 ... 33.1 µM
10. COCC[C@H]1CCC/C=C/[C@@H]2C[C@H](O)C[C@H]2[C@H](O)/C=C/C(=O)O1 ... 0.107 µM
11. Nc1ccccc1C#C/C=C\C#Cc1ccccc1N ... 36 µM
12. NC(=O)c1cc(Cl)ccc1NC(=O)/C=C/c1ccccc1 ... > 53.7 µM
13. Cc1ccc2c(c1)CC1(Cc3ccccc3C1=O)C2=O (configuration not stated) ... > 100 µM
14. CCc1nc(N)nc(N)c1-c1ccc(NC)c([N+](=O)[O-])c1 ... > 87 µM
15. N#C[C@@H](c1ccccn1)c1ncccc1[N+](=O)[O-] ... > 100 µM
16. CC(=O)O[C@H]1C(=O)[C@@]2(C)[C@H]([C@H](OC(=O)c3ccoc3)[C@]3(O)C[C@H](OC(=O)[C@H](O)[C@@H](NC(=O)c4ccccc4)c4ccccc4)C(C)=C1C3(C)C)[C@]1(OC(C)=O)CO[C@@H]1C[C@@H]2O ... > 12.5 µM
17. O=c1cc(NCC(O)CN2CCCC2)n(Cc2ccccc2)c(=O)n1Cc1ccccc1 (configuration not stated) ... > 100 µM
18. O=C(Nc1nnc(-c2ccc(Cl)cc2)o1)C(SC(=S)N1CCOCC1)c1ccccc1 (configuration not stated) ... 56.5 µM
19. CCOC(=O)C1C(=O)CC1(C)C (configuration not stated) ... > 10 µM
20. O=C(Nc1n[nH]c2cc(-c3ccccc3)ccc12)C1CC1 ... > 25 µM
21. Nc1nc(-c2ccccc2)cc(-c2ccc(OCc3ccccc3)cc2O)n1 ... > 100 µM
22. CCOC(=O)c1cc2c3ccn(Cc4ccccc4)c3c3c(C)[nH]oc3c2n1 ... > 100 µM

This collection of values is drawn from PubChem BioAssay (NCI).
